# Assay info: Antiproliferative activity against human SKNO-1 cells assessed as cell growth inhibition measured for 4 days by celltiter-glo assay
# Measurement setup: SKNO-1, 96 h
Measured quantity: IC50 (nM)
Numbers only, in nM.

Query (compound): CN(CCCC#Cc1cccc2c1CN(C1CCC(=O)NC1=O)C2=O)C(=O)CCN(C(=O)[C@@H]1CCCN1C(=O)[C@@H](NC(=O)c1cc2cc(C(F)(F)P(=O)(O)O)ccc2s1)C(C)(C)C)c1ccc(-c2nccs2)cc1 (stereo partly specified) ; field requested: IC50 360

###

# Assay info: Half life in SCID mouse at 150 mg/kg, ip
# Format: ADME, organism-based
# Measurement setup: in vivo
Measured quantity: half-life (h)
Numbers only, in h.

Query (compound): CN(CCCC#Cc1cccc2c1CN(C1CCC(=O)NC1=O)C2=O)C(=O)CCN(C(=O)[C@@H]1CCCN1C(=O)[C@@H](NC(=O)c1cc2cc(C(F)(F)P(=O)(O)O)ccc2s1)C(C)(C)C)c1ccc(-c2nccs2)cc1 (stereo partly specified) ; field requested: half-life 1.9

###

# Target or system: Signal transducer and activator of transcription 5A (Homo sapiens, UniProt P42229)
# Sequence (P42229 whole entry): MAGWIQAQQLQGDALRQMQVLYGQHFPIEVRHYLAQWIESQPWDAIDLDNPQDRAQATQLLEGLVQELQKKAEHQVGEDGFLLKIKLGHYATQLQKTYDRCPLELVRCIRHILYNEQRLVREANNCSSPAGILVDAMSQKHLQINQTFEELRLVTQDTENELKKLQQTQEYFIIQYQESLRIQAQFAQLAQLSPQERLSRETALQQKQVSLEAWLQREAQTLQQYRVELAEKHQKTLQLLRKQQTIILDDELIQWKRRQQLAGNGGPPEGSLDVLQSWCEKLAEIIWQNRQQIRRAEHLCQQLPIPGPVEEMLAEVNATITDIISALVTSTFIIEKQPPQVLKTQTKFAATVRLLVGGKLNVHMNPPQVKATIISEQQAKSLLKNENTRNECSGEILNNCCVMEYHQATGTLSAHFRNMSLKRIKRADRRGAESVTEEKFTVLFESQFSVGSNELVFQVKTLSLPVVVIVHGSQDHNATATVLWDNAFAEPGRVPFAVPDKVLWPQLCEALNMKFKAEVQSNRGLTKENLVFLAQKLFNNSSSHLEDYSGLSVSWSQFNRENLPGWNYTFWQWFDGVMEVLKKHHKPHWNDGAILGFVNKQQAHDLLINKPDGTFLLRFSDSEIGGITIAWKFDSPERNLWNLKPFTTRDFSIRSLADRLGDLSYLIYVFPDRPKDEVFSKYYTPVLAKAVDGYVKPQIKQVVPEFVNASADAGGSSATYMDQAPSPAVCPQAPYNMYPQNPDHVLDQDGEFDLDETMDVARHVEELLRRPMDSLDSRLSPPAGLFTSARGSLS
# Assay info: Induction of STAT5 degradation in human SKNO-1 cells measured for 18 hrs by Western blot analysis
# Type: cell-based
Task for the reader: assign each of the following molecules its reported log10 DC50.
Values below are the log10 of the recorded DC50, with nM as the unit.

These solved cases illustrate the format of a correct answer.
CN(CCCC#Cc1cccc2c1CN(C1CCC(=O)NC1=O)C2=O)C(=O)CCN(C(=O)[C@@H]1CCCN1C(=O)[C@@H](NC(=O)c1cc2cc(C(F)(F)P(=O)(O)O)ccc2s1)C(C)(C)C)c1ccc(-c2nccs2)cc1 (some centres undefined) : 2.00
CC(C)(C)[C@H](NC(=O)c1cc2cc(C(F)(F)P(=O)(O)O)ccc2s1)C(=O)N1CCC[C@H]1C(=O)N(CCC(=O)NCCCCC#Cc1cccc2c1CN(C1CCC(=O)NC1=O)C2=O)c1ccc(Br)cc1 (some centres undefined) : 2.70
CN(CCCC#Cc1cccc2c1CN(C1CCC(=O)NC1=O)C2=O)C(=O)CCN(C(=O)[C@@H]1CCCN1C(=O)[C@@H](NC(=O)c1cc2cc(C(F)(F)P(=O)(O)O)ccc2s1)C(C)(C)C)c1ccc2scnc2c1 (some centres undefined) : 2.52
CC(C)(C)[C@H](NC(=O)c1cc2cc(C(F)(F)P(=O)(O)O)ccc2s1)C(=O)N1CCC[C@H]1C(=O)N(CCC(=O)NCCCC#Cc1cccc2c1CN(C1CCC(=O)NC1=O)C2=O)c1ccc2sccc2c1 (some centres undefined) : 2.26
CC(C)(C)[C@H](NC(=O)c1cc2cc(C(F)(F)P(=O)(O)O)ccc2s1)C(=O)N1CCC[C@H]1C(=O)N(CCC(=O)NCCCCCCC#Cc1cccc2c1CN(C1CCC(=O)NC1=O)C2=O)c1ccc(Br)cc1 (some centres undefined) : 3.15

// input: 2 molecules below; output: log10 DC50 for each
1. CC(C)(C)[C@H](NC(=O)c1cc2cc(C(F)(F)P(=O)(O)O)ccc2s1)C(=O)N1CCC[C@H]1C(=O)N(CCC(=O)NCCCC#Cc1cccc2c1CN(C1CCC(=O)NC1=O)C2=O)c1ccc(Cl)cc1 (some centres undefined)
2. CN(CCCC#Cc1cccc2c1CN(C1CCC(=O)NC1=O)C2=O)C(=O)CCN(C(=O)[C@@H]1CCCN1C(=O)[C@@H](NC(=O)c1cc2cc(C(F)(F)P(=O)(O)O)ccc2s1)C(C)(C)C)c1ccc2sccc2c1 (some centres undefined)

3.32
2.11
